test system: A549; test: Cytotoxicity against human A549 cells after 72 hrs by MTT assay; type: functional, cell-based; details: A549, 72 h
pIC50: −log10 of the molar value.
Measurement name: pIC50

State the recorded pIC50 for every item in the following list.
1. COc1c(O)cc2c(c1O)C(=O)[C@H](Cc1ccc(O)cc1)CO2
2. O=C(CCc1ccc(O)cc1O)c1ccc(O)cc1
3. COc1cc(C(O)C(O)CO)ccc1O (configuration not stated) [GUAIACYL GLYCEROL]

Outgoing:
1. < 4.00
2. < 4.00
3. < 4.00

Please give pIC50, item by item, for the list that follows.
1. COc1cc(O)cc2c1OC[C@H](Cc1ccc(O)cc1)C2
2. O=C(O)c1ccc(O)cc1 [PARABEN]
3. O=C1C[C@@H](c2ccccc2)Oc2cc(O)cc(O)c21 [PINOCEMBRIN]
4. Oc1ccc(C[C@H]2COc3cc(O)ccc3C2)cc1
5. COc1ccc2c(c1)O[C@H](c1ccc(O)cc1)CC2

Outgoing:
1: < 4.00; 2: < 4.00; 3: < 4.00; 4: < 4.00; 5: < 4.00
